# Assayed System: T1, HLA-B*07:02 (human)
# T1 construct: Peptide-receptive MHC monomer made by UV cleavage of a UV-sensitive peptide
# Experimental Protocol: UV-ligand exchange, anti-b2m ELISA; exchange yield grade (+ >10%, ++ >20%, +++ >50, ++++ >75%)
The binders listed here are annotated with their peptide exchange yield.

binder=RPAPADSAL recorded_result="50 to 75%"

# next binder below
Please report the recorded peptide exchange yield for MPMISIPRV .
20 to 50%

Reference for the values: patent US20180291082A1
